src = PubChem BioAssay (NCATS)

TARGET_OR_TEST_SYSTEM: Rap guanine nucleotide exchange factor 3 (Homo sapiens) (UniProt O95398)
Sequence (O95398 whole entry, looked up): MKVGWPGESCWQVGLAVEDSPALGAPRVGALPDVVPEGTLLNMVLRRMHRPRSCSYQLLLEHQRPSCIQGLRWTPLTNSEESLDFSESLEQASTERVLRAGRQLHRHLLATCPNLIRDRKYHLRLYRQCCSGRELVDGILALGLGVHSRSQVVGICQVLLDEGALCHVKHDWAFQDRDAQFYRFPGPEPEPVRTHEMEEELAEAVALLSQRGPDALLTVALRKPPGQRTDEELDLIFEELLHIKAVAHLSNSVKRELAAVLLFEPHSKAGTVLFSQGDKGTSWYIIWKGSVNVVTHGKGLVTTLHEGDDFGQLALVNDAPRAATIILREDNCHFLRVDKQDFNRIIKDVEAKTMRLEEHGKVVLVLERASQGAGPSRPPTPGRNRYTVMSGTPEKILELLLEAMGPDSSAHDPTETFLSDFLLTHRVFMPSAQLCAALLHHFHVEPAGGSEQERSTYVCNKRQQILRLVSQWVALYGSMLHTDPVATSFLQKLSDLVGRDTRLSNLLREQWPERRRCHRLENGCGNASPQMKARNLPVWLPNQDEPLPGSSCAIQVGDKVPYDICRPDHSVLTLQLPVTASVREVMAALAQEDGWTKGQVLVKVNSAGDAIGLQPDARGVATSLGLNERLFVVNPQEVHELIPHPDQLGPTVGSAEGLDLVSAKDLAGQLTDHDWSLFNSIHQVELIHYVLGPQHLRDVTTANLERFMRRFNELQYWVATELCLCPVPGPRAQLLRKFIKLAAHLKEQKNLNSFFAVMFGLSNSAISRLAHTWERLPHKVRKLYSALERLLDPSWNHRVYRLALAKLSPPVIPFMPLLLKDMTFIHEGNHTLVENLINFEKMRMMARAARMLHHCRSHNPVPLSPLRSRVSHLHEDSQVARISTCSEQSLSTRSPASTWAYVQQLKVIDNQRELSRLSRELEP
TEST_SUMMARY: Confirmatory qHTS for agonist of cAMP-regulated guanine nucleotide exchange factor 3 (EPAC1) (AID 1645881); further: nearly all actives have a fitted effect of over 75% in size;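 on activation: EPAC1 catalysed release of BODIPY-GDP from Rap1B seen as fluorescence loss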
ASSAY_CONTEXT: EPAC1 Rap1B BODIPY-GDP exchange fluorescence; series mostly up to 154 µM
Results filed as inconclusive are left out. Activity calls are given as the source filed them. The call rests on the fitted dose curve; in most records, active means well fitted activation curve with a large enough effect; inconclusive means small, poorly fitted or top-dose-only effect; inactive means no such curve, though single readings can be large or run the other way.
Possible outcomes: active, inactive

COMPOUND: COc1ccc(-c2nc(C)ncc2-c2ccc(Cl)cc2)c(O)c1
GROUP_LABEL: inactive
--
COMPOUND: CCCN1C(=O)c2[nH]nc(-c3cccc(OC)c3)c2C1c1ccccn1 (centres undefined)
GROUP_LABEL: inactive
--
COMPOUND: CCOc1cc(/C=N/Nc2ccc(C(=O)O)cc2)ccc1OC(=O)c1ccccc1C
GROUP_LABEL: inactive
--
COMPOUND: O=c1[nH]nc(CNc2ccc(O)cc2)c2ccccc12
GROUP_LABEL: inactive
--
COMPOUND: CCOC(=O)N(C)c1c(CC)nc2c(OCc3ccc(C(F)(F)F)cc3)cccn12
GROUP_LABEL: inactive
--
COMPOUND: Cc1cccc(N2C(=O)C(O)=C(C(=O)c3cccs3)C2c2cccc(Oc3ccccc3)c2)n1 (centres undefined)
GROUP_LABEL: inactive
--
COMPOUND: O=C(N/N=C/c1coc2ccc(Cl)cc2c1=O)c1cc(O)cc(O)c1
GROUP_LABEL: inactive
--
COMPOUND: O=C(N/N=C\c1c(O)ccc2ccccc12)c1ccc(S(=O)(=O)N2CCCCC2)cc1
GROUP_LABEL: active
--
COMPOUND: COc1cccc(NC(=O)/C(C#N)=C/c2ccc(-c3ccc(C)cc3)o2)c1
GROUP_LABEL: inactive
